Values were extracted from patent US20240376151A1.

TESTED ON: RNF31 PUB domain (Homo sapiens)
Construct: MBP-TEV (N, cleaved yes); made in house; host or cells: E. coli BL21 (DE3) pLysS
Sequence (Q96EP0 1-179): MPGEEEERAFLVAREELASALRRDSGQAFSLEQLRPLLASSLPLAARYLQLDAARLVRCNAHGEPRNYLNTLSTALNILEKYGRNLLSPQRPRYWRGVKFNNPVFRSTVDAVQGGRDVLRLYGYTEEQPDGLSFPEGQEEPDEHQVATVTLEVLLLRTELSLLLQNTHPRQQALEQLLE
ASSAY PROTOCOL: Phage Library Screening with NGS, RNF31 PUB domain
Assay type: binding
CONDITION LABEL: RNF31 PUB domain clusters C41-C45; target concentration 1000, second column
REPORTED METRIC: Phage library screen NGS readout, Target Concentration 1000

DPAMQDCQLAALVCTTY    6
DPAEDECQDAAILCSYN    6
DPAEDECDWAALYCDMQ    6

====

TESTED ON: RNF31 UBA domain (Homo sapiens)
Construct: RNF31 UBA domain protein (residues 480-639) with N-terminal Thioredoxin-TEV-6×his-yBBr-3C tags; Thioredoxin (N, cleaved yes); made in house; host or cells: E. coli BL21 (DE3) pLysS
Sequence (Q96EP0 480-639): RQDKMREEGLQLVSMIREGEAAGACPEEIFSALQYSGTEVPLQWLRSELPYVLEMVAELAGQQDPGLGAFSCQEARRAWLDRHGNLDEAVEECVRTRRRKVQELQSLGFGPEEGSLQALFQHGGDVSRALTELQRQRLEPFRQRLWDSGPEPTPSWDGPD
ASSAY PROTOCOL: Phage Library Screening with NGS, RNF31 UBA domain
Format: binding
CONDITION LABEL: RNF31 UBA domain cluster C46; target concentration 30
REPORTED METRIC: Phage library screen NGS readout, Target Concentration 30

DPALTNCFSAAVYCAMF    39

1. DPAALACLSAAVYCEMY
2. DPALQSCLSAAVYCTVS
query: Field: lower Phage library screen NGS readout, Target Concentration 30 | Options: 1 / 2 Write down the label attached to your selection.
result: 2
(2: 0, 1: 49)

====

TESTED ON: CUL1 (Homo sapiens, UniProt Q13616, L371D/V367R)
Construct: CUL1 (Uniprot ID: Q13616, residue 15-410, V367R/L371D); GST-TEV (N, cleaved yes); made in house; host or cells: E. coli BL21 CodonPlus
Sequence (Q13616 15-410 V367R/L371D): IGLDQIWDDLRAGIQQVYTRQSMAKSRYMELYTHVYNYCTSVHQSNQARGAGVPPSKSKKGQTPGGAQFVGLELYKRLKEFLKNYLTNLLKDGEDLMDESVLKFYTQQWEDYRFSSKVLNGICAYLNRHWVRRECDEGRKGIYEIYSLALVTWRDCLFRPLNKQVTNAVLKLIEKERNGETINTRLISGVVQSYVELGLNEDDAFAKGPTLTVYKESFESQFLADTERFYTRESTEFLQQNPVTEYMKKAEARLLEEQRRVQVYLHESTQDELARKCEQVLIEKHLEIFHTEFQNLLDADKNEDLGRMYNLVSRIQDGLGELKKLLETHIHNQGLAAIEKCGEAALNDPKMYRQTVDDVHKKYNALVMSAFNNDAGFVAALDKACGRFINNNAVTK
ASSAY PROTOCOL: Naive Library Presenter Screening (phage, NGS), CUL1
Assay type: binding
CONDITION LABEL: CUL1 target concentration 1000 nM, second column
REPORTED METRIC: interaction data at Target Concentration 1000

Below, each entry is followed by its recorded interaction data at Target Concentration 1000 result.
DPAEFVCDWAALACLVD    300
DPAQILCDLAALYCVVE    119
DPAMLQCDMAALWCMVS    126

a. DPAIIQCDQAALWCVVT
b. DPAEAACDIAALMCIID
query: // compare measured interaction data at Target Concentration 1000, left a , right b , return larger Write down the label attached to your selection.
result: b
(b: 195, a: 61)

1. DPAEVHCDMAALYCIIR
2. DPAEMQCDYAAILCIVR
query: Field: lower interaction data at Target Concentration 1000 | Options: 1 / 2 Write down the label attached to your selection.
result: 2

====

TESTED ON: CUL4B (Homo sapiens, UniProt Q13620, L520D/V516R)
Construct: GST-TEV (N, cleaved yes); made in house; host or cells: E. coli BL21 CodonPlus
Sequence (Q13620 206-557 V516R/L520D): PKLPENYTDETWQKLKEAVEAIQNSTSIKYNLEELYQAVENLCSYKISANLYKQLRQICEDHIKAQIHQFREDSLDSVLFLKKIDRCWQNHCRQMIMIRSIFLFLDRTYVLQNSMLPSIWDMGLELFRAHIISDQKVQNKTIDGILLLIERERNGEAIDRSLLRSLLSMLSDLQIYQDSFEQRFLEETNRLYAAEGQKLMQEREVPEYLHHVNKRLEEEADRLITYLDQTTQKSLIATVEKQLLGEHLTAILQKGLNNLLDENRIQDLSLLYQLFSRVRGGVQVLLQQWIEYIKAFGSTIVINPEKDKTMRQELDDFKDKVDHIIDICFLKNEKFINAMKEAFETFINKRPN
ASSAY PROTOCOL: Naive Library Presenter Screening (phage, NGS), CUL4B
Assay type: binding
CONDITION LABEL: CUL4B target concentration 1000 nM, first column
REPORTED METRIC: interaction data at Target Concentration 1000

Below, each entry is followed by its recorded interaction data at Target Concentration 1000 result.
DPADRLCELAAWVCQSF    9
DPATTECILAAWICDRF    18
DPAMNHCVLAAWVCDTF    9

A. DPATRHCIFAAWACDRF
B. DPAERHCQLAAWVCHQF
query: Field: lower interaction data at Target Concentration 1000 | Options: A / B Write down the label attached to your selection.
result: A
(A: 12, B: 29)

====

TESTED ON: RNF31 PUB domain (Homo sapiens, UniProt Q96EP0)
Construct: MBP-TEV (N, cleaved yes); made in house; host or cells: E. coli BL21 (DE3) pLysS
Sequence (Q96EP0 1-179): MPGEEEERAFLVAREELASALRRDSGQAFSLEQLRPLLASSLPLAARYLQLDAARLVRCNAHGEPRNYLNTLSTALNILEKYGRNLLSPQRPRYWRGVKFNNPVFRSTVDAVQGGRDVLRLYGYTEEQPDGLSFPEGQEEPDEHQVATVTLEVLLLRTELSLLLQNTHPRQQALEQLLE
ASSAY PROTOCOL: Phage Library Screening with NGS, RNF31 PUB domain
Format: binding
CONDITION LABEL: clusters C41-C45; BLANK screen, column 4 of 5
REPORTED METRIC: Phage library screen NGS readout, BLANK

DPAFAQCEVAAMVCTTY    0

P. DPALRDCLDAAIMCTYT
Q. DPAIRECMLAALVCSTY
R. DPALEICWDAAIQCSYV
query: Task field, ranking: reported Phage library screen NGS readout, BLANK, descending order. State the ranking by listing the labels in the requested order.
result: R, Q, P

====

TESTED ON: CUL5 (Homo sapiens, UniProt Q93034, L345D/V341R)
Construct: GST-TEV (N, cleaved yes); made in house; host or cells: E. coli BL21 CodonPlus
Sequence (Q93034 1-386 V341R/L345D): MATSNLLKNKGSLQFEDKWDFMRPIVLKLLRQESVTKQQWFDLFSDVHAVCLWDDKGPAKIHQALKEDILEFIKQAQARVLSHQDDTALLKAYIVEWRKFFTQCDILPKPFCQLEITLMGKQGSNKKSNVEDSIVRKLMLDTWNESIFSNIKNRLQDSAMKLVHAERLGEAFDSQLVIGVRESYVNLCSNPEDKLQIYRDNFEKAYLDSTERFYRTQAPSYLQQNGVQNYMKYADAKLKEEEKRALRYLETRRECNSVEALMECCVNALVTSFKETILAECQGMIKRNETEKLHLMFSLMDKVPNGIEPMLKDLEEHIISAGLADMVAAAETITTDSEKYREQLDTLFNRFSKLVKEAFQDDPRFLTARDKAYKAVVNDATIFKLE
ASSAY PROTOCOL: Naive Library Presenter Screening (phage, NGS), CUL5
Assay type: binding
CONDITION LABEL: CUL5 target concentration 300 nM
REPORTED METRIC: interaction data at Target Concentration 300

Below, each entry is followed by its recorded interaction data at Target Concentration 300 result.
DPAWYECASAAWVCYSM    60
DPAWRECAHAAWQCYIQ    21
DPAWMTCATAAWECYLA    48

A. DPAWWECAEAAWQCQVL
B. DPAWAICAEAAWDCFMI
C. DPATFACANAAWECYAR
D. DPAWFTCAQAAWDCVFH
query: Task field, ranking: reported interaction data at Target Concentration 300, descending order. State the ranking by listing the labels in the requested order.
result: D, B, A, C
(D: 96, B: 58, A: 20, C: 11)

====

TESTED ON: PPIA (Homo sapiens)
Construct: Full length PPIA (residues 1-165) with an N-terminal 6×his-yBBR-TEV tag; 6×his-yBBR-TEV (N); made in house; host or cells: E. coli BL21 (DE3) CodonPlus RIPL
ASSAY PROTOCOL: Phage Library Screening with NGS, PPIA
Format: binding
CONDITION LABEL: target concentration 100
REPORTED METRIC: phage screen counts, Target Concentration 100

Below, each entry is followed by its recorded phage screen counts, Target Concentration 100 result.
PDCHIQAYICH    0
DPARYSCHVAAYECILN    17
DPARADCRVAAYWCYHQ    6
PHDCHVNAWYC    0
PDCHIYAFYCL    1

A. PECHVEAYFCE
B. DPATMNCHVAAYFCIVE
C. PTCHIHAYHCY
D. DPAQLNCHVAAFFCFQS
query: Task field, ranking: reported phage screen counts, Target Concentration 100, descending order. State the ranking by listing the labels in the requested order.
result: D, B, C, A
(D: 21, B: 10, C: 3, A: 0)

a. PYDCHIAAWMC
b. DPAQADCHIAAYLCLFD
query: Field: lower phage screen counts, Target Concentration 100 | Options: a / b Write down the label attached to your selection.
result: a
(a: 0, b: 10)

I. PTCHVQAWYCW
II. DPALFDCHIAAYQCIFY
query: Field: lower phage screen counts, Target Concentration 100 | Options: I / II Write down the label attached to your selection.
result: I

A. PNCHLYAWECY
B. PDCHLNAYWCM
C. DPAYYDCHIAAYFCRTQ
D. DPAQHDCHVAAYQCIWE
query: Task field, ranking: reported phage screen counts, Target Concentration 100, descending order. State the ranking by listing the labels in the requested order.
result: D, C, B, A
(D: 273, C: 77, B: 1, A: 0)

1. PDCHIAAWYCR
2. DPARADCQVAAYWCYHQ
3. DPARADCHVAAYWCHHQ
4. PNCHVMAYWCW
5. DPAAFSCHVAAWQCHTL
query: Order the entries by their reported phage screen counts, Target Concentration 100, beginning at the minimum. State the ranking by listing the labels in the requested order.
result: 1, 4, 3, 2, 5
(1: 0, 4: 1, 3: 4, 2: 13, 5: 156)

a. PNCHVEAWYCI
b. DPARADCHVAAYWCYHE
query: Field: lower phage screen counts, Target Concentration 100 | Options: a / b Write down the label attached to your selection.
result: a
(a: 0, b: 4)

A. PDCHIRAYMCN
B. PDCHVAAYICY
C. DPAAHDCHIAAYWCLNY
query: Order the entries by their reported phage screen counts, Target Concentration 100, beginning at the minimum. State the ranking by listing the labels in the requested order.
result: A, B, C
(A: 0, B: 3, C: 116)

P. PDCHIASWFCS
Q. DPARADCHVAAYWCYHR
query: Field: lower phage screen counts, Target Concentration 100 | Options: P / Q Write down the label attached to your selection.
result: P
